- TESTED SYSTEM: N-formyl peptide receptor 2 (Homo sapiens, UniProt P25090)
- Sequence (P25090 whole entry): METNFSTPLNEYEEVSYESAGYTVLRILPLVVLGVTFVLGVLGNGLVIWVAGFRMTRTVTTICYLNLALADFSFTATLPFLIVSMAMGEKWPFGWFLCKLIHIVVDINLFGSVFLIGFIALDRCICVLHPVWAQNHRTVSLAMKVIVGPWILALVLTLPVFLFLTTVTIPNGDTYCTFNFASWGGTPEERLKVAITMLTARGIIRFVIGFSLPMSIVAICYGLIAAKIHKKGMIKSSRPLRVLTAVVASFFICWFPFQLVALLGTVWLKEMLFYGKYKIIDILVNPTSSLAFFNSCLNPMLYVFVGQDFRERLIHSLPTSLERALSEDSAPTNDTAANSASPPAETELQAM
- PROTOCOL SUMMARY: FLIPR: HEK-Gα16 cells stably expressing the human FPR2 receptor was utilized. Cells were plated into 384-well poly-D-lysine coated plates at a density of 18,000 cells per well one day prior to use. The growth media was DMEM medium supplemented with 10% fetal bovine serum (FBS), 1% antibiotic-antimycotic, 50 μg/ml hygromycin, and 400 μg/ml geneticin. On the day of the experiment, the cells were …
- Description: FLIPR: HEK-Gα16 cells stably expressing the human FPR2 receptor was utilized. Cells were plated into 384-well poly-D-lysine coated plates at a density of 18,000 cells per well one day prior to use. The growth media was DMEM medium supplemented with 10% fetal bovine serum (FBS), 1% antibiotic-antimycotic, 50 μg/ml hygromycin, and 400 μg/ml geneticin. On the day of the experiment, the cells were washed twice with Hank's Balanced Salt Solution supplemented with 20 mM HEPES (HBSS/hepes buffer). The cells were then dye loaded with 2 μM Fluo-4 diluted in the HBSS/Hepes buffer and incubated at 37° C. for 40 minutes. Extracellular dye was removed by washing the cell plates four times prior to placing the plates in the FLIPR (Fluorometric Imaging Plate Reader, Molecular Devices). Ligands were diluted in HBSS/Hepes buffer and prepared in 384-well microplates.
pEC50: −log10 of the molar value.
OBSERVED PROPERTY: pEC50

Tell us which pEC50 value is on record for NC(=O)C1C(C(=O)Nc2ccc(Br)cc2)C2CCC1C21CC1 (single isomer, unassigned)
> 9.00
